- System name: T1, human Ang-2 (human, UniProt O15123)
- T1 chain: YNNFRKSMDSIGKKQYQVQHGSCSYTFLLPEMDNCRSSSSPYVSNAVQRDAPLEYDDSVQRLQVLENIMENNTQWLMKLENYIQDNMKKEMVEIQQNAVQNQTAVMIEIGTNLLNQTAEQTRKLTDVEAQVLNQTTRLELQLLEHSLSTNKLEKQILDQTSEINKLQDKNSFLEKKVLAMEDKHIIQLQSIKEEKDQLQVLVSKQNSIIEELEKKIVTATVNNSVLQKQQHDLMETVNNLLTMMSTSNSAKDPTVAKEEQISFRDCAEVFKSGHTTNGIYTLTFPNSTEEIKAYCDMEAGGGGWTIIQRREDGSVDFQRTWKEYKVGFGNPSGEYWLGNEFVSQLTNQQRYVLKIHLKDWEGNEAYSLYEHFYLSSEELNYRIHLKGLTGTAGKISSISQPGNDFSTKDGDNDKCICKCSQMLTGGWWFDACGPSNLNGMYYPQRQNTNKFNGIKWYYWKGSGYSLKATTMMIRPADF
- Test name: competition ELISA vs Tie-2
pIC50: −log10 of the molar value. Primed or numbered codes have the meaning given here. Where no end group is shown, it is not given here. [ ]: non-standard residue; d: D form. Fc(7) = Fc domain, peptide fused N- or C-terminal to it
Test readout: pIC50

INSERT INTO assay_data (binder, reported_measurement) VALUES
  ('M[Fc(7)]GGGGGAQKLEYCDGMEDPFTQGCDNQSLE (not fully specified (bridges); cysteine pairing not given here) [12-9-2 (C)]', 8.07),
  ('M[Fc(7)]GGGGGAQFDYCEGVEDPFTFGCDNHLE (not fully specified (bridges); cysteine pairing not given here) [12-9 (C)]', 7.82),
  ('M[Fc(7)]GGGGGAQLQDYCEGVEDPFTFGCENQRLE (not fully specified (bridges); cysteine pairing not given here) [12-9-C2 (C)]', 8.85);
